Provenance of the data: PubChem BioAssay AID1159580

test: chemical genetic growth profiling, strain panel (AID 1159580);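 further: tested at 20 µM; growth read once vehicle control cultures reached saturation at 30 °C; 1 = growth at the plate median or of vehicle wells; lower values mean less growth of the strain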; settings: S. cerevisiae deletion strains, growth OD, locus YOL012C, strain htz1
Among all 5,500 compounds or so, about 2,000 (36%) were called active. Not shown: some 18% with an inconclusive outcome. The list shows a part of the results.
parameter: normalized growth
Give bare numbers.

Here are 8 compounds together with their reported answers.
CC1CC[C@@]2(OC1)O[C@H]1CC3C4CC[C@@H]5C[C@@H](O)CC[C@]5(C)C4CC[C@]3(C)[C@H]1[C@@H]2C (some centres undefined) = 1.12
NS(=O)(=O)c1cc(C2(O)NC(=O)c3ccccc32)ccc1Cl (centres undefined) = 1.12
C[C@@H]1CC[C@@]2(NC1)O[C@H]1C[C@H]3C4CC=C5C[C@@H](O)CC[C@]5(C)C4CC[C@]3(C)C1[C@@H]2C (some centres undefined) = 0.198
CC(C)c1c(O)ccc2c1CCC1C(C)(C)CCC[C@]21C (some centres undefined) = 0.469
C[C@@H]1CC[C@@]2(OC1)OC1CC3C4CC=C5C[C@@H](O)CC[C@]5(C)C4CC[C@]3(C)C1[C@@H]2C (some centres undefined) = 1.17
CC(C)c1c(O)c(-c2cc3c(c(C(C)C)c2O)CCC2C(C)(C)CCC[C@]32C)cc2c1CCC1C(C)(C)CCC[C@]21C (some centres undefined) = 0.995
Cc1ccccc1OCC(O)CO (centres undefined) = 0.987
COc1ccc2c(c1C(C)C)CCC1C(C)(C)C(=O)CCC21C (centres undefined) = 1.19

Looking up CC1CC[C@@]2(OC1)O[C@H]1CC3C4CC[C@@H]5CC(=O)CC[C@]5(C)C4CC[C@]3(C)[C@H]1[C@@H]2C (some centres undefined) , I found its normalized growth recorded as 1.11
